# credit: PubChem BioAssay (NCI)

Test system: HCT-116 colon
Assay: NCI-60 one-dose screen, 48 h
Settings: 10 µM unless noted
About 83,000 compounds went through this panel and 20% of them were active in at least one assay; those are over-represented in the sample as a whole. Calls of active or inactive are those of the source. How the source made its calls: active means growth percent below 10; inactive means the rest.
Pick from TRUE for active, FALSE for inactive when you respond.

For orientation, consider the following solved cases.
* O=C(Nc1ccc(-c2ccc3c(c2)NC(=O)/C3=C\c2ccc[nH]2)cc1)Nc1ccc(Cl)c(C(F)(F)F)c1 | TRUE
* CCOc1ccc2[nH]c(=O)c(C(c3nnnn3CC3CCCO3)N3CCN(Cc4ccccc4)CC3)cc2c1 (configuration not stated) | FALSE
* CNS(=O)(=O)N1CCc2c(Br)c3c(c(OC)c2C1CCc1ccccc1)OCO3 (configuration not stated) | TRUE
* CN1CCN(C(=O)Oc2cc3c(c4ccccc24)[C@H](CCl)CN3C(=O)c2cc3cc(OCCCN4CCC4)ccc3[nH]2)[C@H]2CSSC[C@H]21 | TRUE
* COc1ccc(-c2cc(-c3cc(OC)c(OC)c(OC)c3)[nH]c(=O)c2C#N)cc1 | FALSE

Q) Test call, this molecule: CCOC(=O)c1ccc(NC(=S)NC(=O)c2ccc(NC(=O)C(C)C)cc2OC)cc1
A) FALSE

Q) For CN(C)c1ccc(/C=C/c2n(Cc3ccc4ccccc4c3)c3ccccc3[n+]2Cc2ccc3ccccc3c2)cc1 then?
A) TRUE

Q) For O=C(NNC(=O)c1ccc(OCc2nc3ccc(Cl)cc3[nH]2)cc1)Nc1ccc(Cl)c(C(F)(F)F)c1 then?
A) TRUE

Q) For Cn1cc(-c2cc(N)n3nc(-c4c[nH]c5ccccc45)cc3n2)c2cc(Cl)ccc21 then?
A) TRUE

Q) For COc1ccc(Nc2nnc(-c3c[nH]c4ccccc34)o2)cc1 then?
A) FALSE
